Compiled IC50 measurements on UniProtKB P28564 taken from the literature.
assay_metric: IC50 (µM)

compound=CN1CCN(c2nc3ccccc3n3cccc23)CC1 inequality_operator== reported=0.232
compound="CCCN(CCCNS(=O)(=O)c1ccc(C)cc1)C1COc2cccc(OC)c2C1 (stereo unspecified)" inequality_operator== reported=2
compound=Clc1ccc(CN2CCN(c3nc4ccsc4n4cccc34)CC2)c(Cl)c1 inequality_operator== reported=4.68
compound=O=c1[nH]c2ccc(CCN3CCN(c4cccc(C(F)(F)F)c4)CC3)cc2s1 inequality_operator== reported=0.6
compound=O=c1[nH]c2ccc(CCCCN3CCN(c4cccc(C(F)(F)F)c4)CC3)cc2s1 inequality_operator== reported=0.4
compound="CCCN(CCCCN1C(=O)c2ccccc2S1(=O)=O)C1COc2cccc(OC)c2C1 (stereo unspecified)" inequality_operator== reported=1
compound=CN1CCN(c2nc3cc(C(F)(F)F)ccc3n3cccc23)CC1 inequality_operator== reported=0.339
compound=Cc1nc(-c2ccc(-c3ccc(C(=O)Nc4ccc(OCCF)c(N5CCN(C)CC5)c4)cc3)c(C)c2)no1 inequality_operator== reported=0.01
compound=Clc1ccc(CN2CCN(c3nc4cccnc4n4cccc34)CC2)c(Cl)c1 inequality_operator== reported=77.6
compound=O=C1c2ccccc2S(=O)(=O)N1CCCCN1CCN(c2ncccn2)CC1 inequality_operator== reported=26
compound=c1ccc(CN2CCN(c3nc4sccc4n4cccc34)CC2)cc1 inequality_operator== reported=91.2
compound=COc1ccccc1N1CCN(CCc2ccc3c(c2)OCC(=O)N3C)CC1 inequality_operator== reported=0.18
compound=CN1CCN(c2nc3sc(-c4ccccc4)cc3n3cccc23)CC1 inequality_operator=> reported=100
compound=COc1ccc(NC(=O)N2CCC(c3c[nH]c4cccc(F)c34)CC2)cc1N1CCN(C)CC1 inequality_operator== reported=0.05
compound=c1cnc2c(c1)nc(N1CCN(Cc3ccc4c(c3)OCO4)CC1)c1cccn12 inequality_operator== reported=49
compound=COc1ccc(NC(=O)N2CCN(CCCCc3c[nH]c4ccc(F)cc34)CC2)cc1N1CCN(C)CC1 inequality_operator== reported=0.077
compound=FC(F)(F)c1cccc(N2CCN(c3nc4cc(-c5ccccc5)sc4n4cccc34)CC2)c1 inequality_operator== reported=1380
compound=COc1ccc(NC(=O)N2CCC(c3c[nH]c4ccc(C(N)=O)cc34)CC2)cc1N1CCN(C)CC1 inequality_operator== reported=0.113
compound="CCCN(CCCCNC(=O)c1ccccc1OC)C1COc2cccc(OC)c2C1 (stereo unspecified)" inequality_operator== reported=1
compound=c1ccc(COc2ccc3nc(N4CCN(Cc5ccccc5)CC4)c4cccn4c3n2)cc1 inequality_operator=> reported=100
compound=C=CCN1CCN(c2nc3ccsc3n3cccc23)CC1 inequality_operator== reported=0.575

----------
pIC50: −log10 of the molar value.
Compiled pIC50 measurements on 5-hydroxytryptamine receptor 1B (Rattus norvegicus, UniProt P28564) taken from the literature.
Sequence (P28564 whole entry): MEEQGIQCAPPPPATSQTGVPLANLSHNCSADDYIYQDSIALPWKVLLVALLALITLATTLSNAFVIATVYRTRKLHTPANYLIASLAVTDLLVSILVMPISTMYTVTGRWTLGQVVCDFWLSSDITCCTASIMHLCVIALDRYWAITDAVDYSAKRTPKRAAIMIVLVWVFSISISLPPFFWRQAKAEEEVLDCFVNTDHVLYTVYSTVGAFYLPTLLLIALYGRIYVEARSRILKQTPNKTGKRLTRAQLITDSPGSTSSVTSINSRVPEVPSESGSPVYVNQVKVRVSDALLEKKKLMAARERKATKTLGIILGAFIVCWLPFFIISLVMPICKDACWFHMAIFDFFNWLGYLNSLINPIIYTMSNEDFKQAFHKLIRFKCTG
assay_metric: pIC50

molecule=Cn1c(=O)sc2cc(CCN3CCN(c4cccc(C(F)(F)F)c4)CC3)ccc21 inequality_operator== reported=7.15
molecule=COc1ccc(NC(=O)NCCN2CCC(c3c[nH]c4cc(F)ccc34)CC2)cc1N1CCN(C)CC1 inequality_operator== reported=6.65
molecule="CCCN(CCCCN1C(=O)C2CCCC2C1=O)C1COc2cccc(OC)c2C1 (stereo in doubt; 9k)" inequality_operator== reported=4.70
molecule=COc1ccc(NC(=O)N2CCC(c3c[nH]c4cc(F)ccc34)CC2)cc1N1CCN(C)CC1 inequality_operator== reported=7.10
molecule=c1ccc(-c2cc3nc(N4CCNCC4)c4cccn4c3s2)cc1 inequality_operator=< reported=4.00
molecule=O=C1CC2(CCCC2)CC(=O)N1OCCCN1CCN(c2nsc3ccccc23)CC1 inequality_operator== reported=5.26
molecule=Cc1ccnc2c1nc(N1CCN(Cc3ccccc3)CC1)c1cccn12 inequality_operator== reported=4.36
molecule="CCCN(CCNS(=O)(=O)c1ccc(C)cc1)C1COc2cccc(OC)c2C1 (single isomer, unassigned; (+))" inequality_operator=< reported=3.00
molecule=c1ccc(CN2CCN(c3nc4cc(-c5ccccc5)sc4n4cccc34)CC2)cc1 inequality_operator=< reported=4.00
molecule="CCCN(CCCCN1CCCCC1)C1COc2cccc(OC)c2C1 (stereo not drawn)" inequality_operator== reported=4.30
molecule="CCCN(CCCN1C(=O)c2ccccc2C1=O)C1COc2cccc(OC)c2C1 (stereo not drawn)" inequality_operator== reported=5.52
molecule=Clc1ccc2nc(N3CCN(Cc4ccccc4)CC3)c3cccn3c2c1 inequality_operator=< reported=4.00
molecule="CCCN(CCN1C(=O)c2ccccc2C1=O)C1COc2cccc(OC)c2C1 (stereo not drawn)" inequality_operator=< reported=3.00

----------
Compiled IC50 measurements on 5-hydroxytryptamine receptor 1B (Rattus norvegicus, UniProt P28564) taken from the literature.
Each record's IC50 is compared with bucket A: < 1 µM; bucket B: ≥ 1 µM and < 30 µM; bucket C: ≥ 30 µM to give its class.

smiles_input=C=CCN1CCN(c2nc3cccnc3n3cccc23)CC1 qualitative_label="bucket A"
smiles_input=COc1ccccc1N1CCN(CCCCc2ccc3[nH]c(=O)sc3c2)CC1 qualitative_label="bucket A"
smiles_input=CN1CCN(c2nc3cc(-c4ccccc4)sc3n3cccc23)CC1 qualitative_label="bucket B"
smiles_input=COc1ccc2nc(N3CCN(Cc4ccc(F)cc4)CC3)c3cccn3c2n1 qualitative_label="bucket C"
smiles_input=c1cc2c(N3CCN(Cc4ccc5c(c4)OCO5)CC3)nc3ccsc3n2c1 qualitative_label="bucket B"
smiles_input=Cc1ccnc2c1nc(N1CCN(Cc3ccc(F)cc3)CC1)c1cccn12 qualitative_label="bucket C"
smiles_input=C[N+]1(Cc2ccccc2)CCN(c2nc3ccsc3n3cccc23)CC1 qualitative_label="bucket C"
smiles_input=Fc1ccc(CN2CCN(Cc3nc4ccsc4n4cccc34)CC2)cc1 qualitative_label="bucket B"

----------
Compiled IC50 measurements on 5-hydroxytryptamine receptor 1B (Rattus norvegicus) taken from the literature.
assay_metric: IC50 (µM)

molecule=CN1C(=O)COc2cc(CCN3CCN(c4cccc(C(F)(F)F)c4)CC3)ccc21 inequality_operator== reported=0.46
molecule="CCCN(CCCCN1C(=O)CC(C)(C)CC1=O)C1COc2cccc(OC)c2C1 (stereo unspecified)" inequality_operator== reported=10
molecule=CN1CCN(c2nc3cc(F)ccc3n3cccc23)CC1 inequality_operator== reported=0.371
molecule="COc1cccc2c1CC(N1CCCC1)CO2 (stereo unspecified)" inequality_operator== reported=100
molecule=COc1ccc(NC(=O)NCCN2CCC(c3c[nH]c4cc(F)ccc34)CC2)cc1OCCN(C)C inequality_operator== reported=0.133
molecule="CCCN(CCCCN1C(=O)CC2(CCCC2)CC1=O)C1COc2cccc(OC)c2C1.O=C(O)C(=O)O (single isomer, unassigned; (-))" inequality_operator== reported=6
molecule=Clc1ccc2c(c1)nc(N1CCN(Cc3ccc4c(c3)OCO4)CC1)c1cccn12 inequality_operator== reported=14.5
molecule=c1ccc(CN2CCN(c3nc4sc(-c5ccccc5)cc4n4cccc34)CC2)cc1 inequality_operator=> reported=100
molecule=Clc1ccc(N2CCN(c3nc4ccsc4n4cccc34)CC2)cc1 inequality_operator== reported=302
molecule=COc1ccccc1N1CCN(CCCc2ccc3c(c2)sc(=O)n3C)CC1 inequality_operator== reported=0.36
molecule=C(=C\c1ccccc1)/CN1CCN(c2nc3ccsc3n3cccc23)CC1 inequality_operator== reported=0.646
molecule=c1cc2c(N3CCNCC3)nc3ccsc3n2c1 inequality_operator== reported=0.0138
molecule="CCCN(CCCCN1C(=O)CC2(CCCC2)CC1=O)C1COc2cccc(O)c2C1 (stereo unspecified)" inequality_operator== reported=30
molecule=O=C(CN1CCN(c2nc3ccsc3n3cccc23)CC1)N1CCCC1 inequality_operator=> reported=100
molecule=Clc1ccc(CN2CCN(c3nc4sccc4n4cccc34)CC2)c(Cl)c1 inequality_operator== reported=63.1
molecule=c1ccc(CN2CCN(c3nc4scc(-c5ccccc5)c4n4cccc34)CC2)cc1 inequality_operator== reported=24
molecule=Fc1ccc(CN2CCN(c3nc4sccc4n4cccc34)CC2)cc1 inequality_operator=> reported=100
molecule="CCCN(CCCCNS(=O)(=O)c1ccc(C)cc1)C1COc2cccc(OC)c2C1 (single isomer, unassigned; (+))" inequality_operator== reported=9
molecule=Clc1ccc2c(c1)nc(N1CCN(Cc3ccccc3)CC1)c1cccn12 inequality_operator== reported=19.1
molecule=FC(F)(F)c1cccc(N2CCN(c3nc4sccc4n4cccc34)CC2)c1 inequality_operator== reported=7.41
molecule=COc1ccc(NC(=O)c2ccc(-c3ccc(-c4noc(C)n4)cc3C)cc2)cc1N1CCN(C)CC1 inequality_operator== reported=0.0016

----------
pIC50: −log10 of the molar value.
Compiled pIC50 measurements on 5-hydroxytryptamine receptor 1B (Rattus norvegicus, UniProt P28564) taken from the literature.
assay_metric: pIC50

compound=Fc1ccc(N2CCN(c3nc4ccsc4n4cccc34)CC2)cc1 system_under_test="5-hydroxytryptamine receptor 1B (Rattus norvegicus, UniProt P28564)" assay_metric=pIC50 reported=4.15
compound="CCCN(CCCON1C(=O)CC2(CCCC2)CC1=O)C1COc2cccc(OC)c2C1 (stereo not given)" system_under_test="5-hydroxytryptamine receptor 1B (Rattus norvegicus, UniProt P28564)" assay_metric=pIC50 reported=4.40
compound=COc1ccc(NC(=O)NCCc2c[nH]c3ccc(F)cc23)cc1N1CCN(C)CC1 system_under_test="5-hydroxytryptamine receptor 1B (Rattus norvegicus, UniProt P28564)" assay_metric=pIC50 reported=7.20
compound=Fc1ccc(CN2CCN(c3nc4cccnc4n4cccc34)CC2)cc1 system_under_test="5-hydroxytryptamine receptor 1B (Rattus norvegicus, UniProt P28564)" assay_metric=pIC50 reported=4.25
compound=Fc1cccc2nc(N3CCNCC3)c3cccn3c12 system_under_test="5-hydroxytryptamine receptor 1B (Rattus norvegicus, UniProt P28564)" assay_metric=pIC50 reported=6.97
compound=FC(F)(F)c1ccccc1CCN1CCN(c2nc3ccsc3n3cccc23)CC1 system_under_test="5-hydroxytryptamine receptor 1B (Rattus norvegicus, UniProt P28564)" assay_metric=pIC50 reported=4.73
compound="COc1cccc2c1CC(NCCCCN1C(=O)CC3(CCCC3)CC1=O)CO2 (stereo not given)" system_under_test="5-hydroxytryptamine receptor 1B (Rattus norvegicus, UniProt P28564)" assay_metric=pIC50 reported=4.70
compound=Cc1nnc(-c2ccc(-c3ccc(C(=O)Nc4ccc(OS(C)(=O)=O)c(N5CCN(C)CC5)c4)cc3)c(C)c2)o1 system_under_test="5-hydroxytryptamine receptor 1B (Rattus norvegicus, UniProt P28564)" assay_metric=pIC50 reported=7.15
compound=COc1ccccc1N1CCN(CCCCc2ccc3c(c2)sc(=O)n3C)CC1 system_under_test="5-hydroxytryptamine receptor 1B (Rattus norvegicus, UniProt P28564)" assay_metric=pIC50 reported=6.52
compound=Fc1ccc2c(c1)nc(N1CCNCC1)c1cccn12 system_under_test="5-hydroxytryptamine receptor 1B (Rattus norvegicus, UniProt P28564)" assay_metric=pIC50 reported=6.78
